experimental.system: heat shock 70 kDa protein (HSP70) (Homo sapiens)
Construct: purchased Sino Biological 11660-H07H
assay.comment: nDEL affinity selection against HSP70 (enrichment fold by deep sequencing)
Type: binding
test.conditions: ratio of normalized sequencing counts in presence and absence of target protein; DNA-encoded compound
Structures can show the parent of a compound that is named as a salt.
observable: Enrichment Fold, HSP70 binder selection

The measured Enrichment Fold, HSP70 binder selection associated with Oc1cc(O)c2c(c1)O[C@H](c1ccc(O)c(O)c1)[C@@H](O)C2 [(+) Catechin] reads 2.7

The measured Enrichment Fold, HSP70 binder selection associated with O=c1c2ccccc2nc2n1CCc1c-2[nH]c2ccccc12 reads 3.2

The measured Enrichment Fold, HSP70 binder selection associated with COc1ccc(-c2coc3cc(O)cc(O)c3c2=O)cc1 reads 3.7

The measured Enrichment Fold, HSP70 binder selection associated with O=c1cc(-c2ccccc2)oc2cc(O)c(O)c(O)c12 reads 3.6

The measured Enrichment Fold, HSP70 binder selection associated with c1ccc(CNc2ncnc3nc[nH]c23)cc1 reads 3.6

The measured Enrichment Fold, HSP70 binder selection associated with COc1cc2ccc(=O)oc2c(O)c1O reads 3.3

The measured Enrichment Fold, HSP70 binder selection associated with Oc1cc(O)c2c(c1)O[C@H](c1cc(O)c(O)c(O)c1)[C@H](O)C2 [Epigallocatechin, epigallocatechin] reads 4.3

The measured Enrichment Fold, HSP70 binder selection associated with O=C(O[C@@H]1Cc2c(O)cc(O)cc2O[C@@H]1c1ccc(O)c(O)c1)c1cc(O)c(O)c(O)c1 [(−)-Epicatechin gallate, (−)- Epicatechingallate] reads 5.0

The measured Enrichment Fold, HSP70 binder selection associated with COc1cc(C(=O)O[C@H]2[C@@H]3C=CO[C@@H](O[C@@H]4O[C@H](CO)[C@@H](O)[C@H](O)[C@H]4O)[C@@H]3[C@@]3(CO)O[C@@H]23)ccc1O [Picroside II] reads 4.0

The measured Enrichment Fold, HSP70 binder selection associated with O=c1c(O)c(-c2ccc(O)c(O)c2)oc2cc(O)cc(O)c12 reads 2.8

The measured Enrichment Fold, HSP70 binder selection associated with O=c1ccc2cc(O)c(O)cc2o1 reads 4.1

The measured Enrichment Fold, HSP70 binder selection associated with COc1c(O)cc2c(c1O)[C@@H]1O[C@H](CO)[C@@H](O)[C@H](O)[C@H]1OC2=O reads 3.6

The measured Enrichment Fold, HSP70 binder selection associated with O=C1C[C@@H](c2ccc(O)cc2)Oc2cc(O)ccc21 reads 2.7

The measured Enrichment Fold, HSP70 binder selection associated with c1coc(CNc2ncnc3[nH]cnc23)c1 reads 2.8

The measured Enrichment Fold, HSP70 binder selection associated with COC(=O)c1ccc(O)c(O)c1 [Methyl protocatechuate] reads 3.6

The measured Enrichment Fold, HSP70 binder selection associated with COC1=C[C@@H]2[C@@H]3Cc4ccc(OC)c(O)c4[C@]2(CCN3C)CC1=O reads 3.2

The measured Enrichment Fold, HSP70 binder selection associated with Cc1c(F)cccc1NC(=O)Nc1ccc(Cl)c(S(=O)(=O)[C@H]2CCCNC2)c1O reads 2.9

The measured Enrichment Fold, HSP70 binder selection associated with COc1cc2c(cc1O)CC[n+]1cc3c(OC)c(OC)ccc3cc1-2 [Jatrorrhizine hydrochloride] reads 4.5
